Every entry's value here was drawn from the RNAGym collection of RNA variant scans (doi:10.7554/elife.90254).

B1: LINE1-mini (parent)
chain: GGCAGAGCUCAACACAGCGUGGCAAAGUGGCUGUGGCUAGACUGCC

Variants of: B1
test_name: self-cleavage, relative activity (ratio to wild type); higher = more cleavage; in vitro, sequencing; the parent is a self-cleaving ribozyme
readout: self-cleavage

[
  {
    "mutant_name": "C3U C31G",
    "reported_measurement": 0.04
  },
  {
    "mutant_name": "U34C G36U",
    "reported_measurement": 0.06
  },
  {
    "mutant_name": "G2A G17U",
    "reported_measurement": 0.19
  },
  {
    "mutant_name": "G7U C23A",
    "reported_measurement": 0.06
  },
  {
    "mutant_name": "A14G U32A",
    "reported_measurement": 0.06
  },
  {
    "mutant_name": "A11C U28C",
    "reported_measurement": 0.03
  },
  {
    "mutant_name": "G2U U28G",
    "reported_measurement": 0.04
  },
  {
    "mutant_name": "C18A G19C",
    "reported_measurement": 1.27
  },
  {
    "mutant_name": "A14C A16U",
    "reported_measurement": 0.12
  },
  {
    "mutant_name": "A11G G19C",
    "reported_measurement": 0.03
  },
  {
    "mutant_name": "C15G U34G",
    "reported_measurement": 0.02
  },
  {
    "mutant_name": "A6C A41C",
    "reported_measurement": 0.04
  },
  {
    "mutant_name": "G1U C42A",
    "reported_measurement": 0.07
  },
  {
    "mutant_name": "G17U C46U",
    "reported_measurement": 0.16
  },
  {
    "mutant_name": "G5A G21C",
    "reported_measurement": 0.13
  },
  {
    "mutant_name": "A14C U34C",
    "reported_measurement": 0.07
  },
  {
    "mutant_name": "G30C U43C",
    "reported_measurement": 0.25
  },
  {
    "mutant_name": "U9G C13A",
    "reported_measurement": 0.19
  },
  {
    "mutant_name": "G5A G35A",
    "reported_measurement": 0.1
  },
  {
    "mutant_name": "G5C U43A",
    "reported_measurement": 0.05
  },
  {
    "mutant_name": "U20C G30C",
    "reported_measurement": 0.98
  },
  {
    "mutant_name": "G17C A39C",
    "reported_measurement": 0.11
  },
  {
    "mutant_name": "G1A G36A",
    "reported_measurement": 0.18
  },
  {
    "mutant_name": "C8A G22A",
    "reported_measurement": 0.18
  },
  {
    "mutant_name": "G17U G27A",
    "reported_measurement": 0.38
  },
  {
    "mutant_name": "A14G C42A",
    "reported_measurement": 0.08
  },
  {
    "mutant_name": "C3U C42A",
    "reported_measurement": 0.09
  },
  {
    "mutant_name": "A26U C46U",
    "reported_measurement": 2.38
  },
  {
    "mutant_name": "A26U G40A",
    "reported_measurement": 0.17
  },
  {
    "mutant_name": "G7A C31U",
    "reported_measurement": 0.08
  },
  {
    "mutant_name": "U28G C42U",
    "reported_measurement": 0.31
  },
  {
    "mutant_name": "G17U A25G",
    "reported_measurement": 0.07
  },
  {
    "mutant_name": "A6U U9G",
    "reported_measurement": 0.15
  },
  {
    "mutant_name": "G33C C42A",
    "reported_measurement": 0.06
  },
  {
    "mutant_name": "A24C U32G",
    "reported_measurement": 0.13
  },
  {
    "mutant_name": "C3G G21C",
    "reported_measurement": 0.41
  },
  {
    "mutant_name": "A25G C45G",
    "reported_measurement": 0.17
  },
  {
    "mutant_name": "A14U G44A",
    "reported_measurement": 0.13
  },
  {
    "mutant_name": "G21U U43G",
    "reported_measurement": 0.07
  }
]
